Biological target: SARS-CoV-2 Receptor Binding Domain (RBD) protein (SARS-CoV-2)
Assay: SPR (Carterra LSA), scFv captured via anti-V5, RBD as analyte, 1:1 fit
reported metric: Kd (nM)
One number for each entry, in nM.

Answered cases to consult:
[[record]]
binder = "COVID19_P24_H04 (scFv, V domains shown) VH: QVQLVQSGAEVKKPGASVKVSCKASGYTFTDYHMHWVRQAPGQGLEWMGWMNPNSGNTSYAQKFQGRVTMTRDTSTSTVYMELSSLRSEDTAVYYCAGMGMGRDGYNSRAFDIWGQGTMVTVSS VL: DIQMTQSPSSLSASVGDRVTITCRASQSISTYLNWYQQKPGKAPKLLIYAASTLQSGVPSRFSGSGSGTDFTLTISSLQPEDFATYYCQQSYSMPLTFGQGTKVEIKR"
result_number = 4

[[record]]
binder = "COVID19_P24_B09 (scFv, V domains shown) VH: QVQLVQSGAEVKKPGSSVYVSCKASGYTFTSYGISWVRQAPGQGLEWMGGIIPMFGTTNYAQKFQGRVTITADKSTSTAYMELSSLRSEDTAVYYCARDRGDTIDYWGQGTLVTVSS VL: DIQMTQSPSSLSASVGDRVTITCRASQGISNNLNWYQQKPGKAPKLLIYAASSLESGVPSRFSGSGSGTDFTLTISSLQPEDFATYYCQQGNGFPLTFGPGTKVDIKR"
result_number = 27.5

[[record]]
binder = "COVID19_P24_F11 (scFv, V domains shown) VH: EVQLLESGGGLVQPGGSLRLSCAASGFTFSGSAMHWVRQAPGKGLEYVSAISRNGGTTYYADSVKGRFTISRDNSKNTLYLQMNSLRAEDTAVYYCAKDGTLITTTLDYWGQGTLVTVSS VL: DIQMTQSPSSLSASVGDRVTITCRASQSIGYYLNWYQQKPGKAPKLLIYAASSLQSGVPSRFSGSGSGTDFTLTISSLQPEDFATYYCQQSYTTPLTFGGGTKVEIKR"
result_number = 0.46

[[record]]
binder = "COVID19_P24_G09 (scFv, V domains shown) VH: QVQLVQSGAEVKKPGASVKVSCKASGYTFTRYYIHWVRQAPGQGLEWMGIINPSGGSTTYAQKFQGRVTMTRDTSTSTVYMELSSLRSEDTAVYYCAKGAPHDYIWGSYRPDAFDIWGQGTMVTVSS VL: DIQMTQSPSSLSASVGDRVTITCRASENIDSWLAWYQQKPGKAPKLLIYEASTLESGVPSRFSGSGSGTDFTLTISSLQPEDFATYYCHQYLSSPETFGQGTKVEIKR"
result_number = 1.56


Could you now look at the following binder, please?
Lookup: Recall and state the measured Kd for COVID19_P11_H02 (scFv, V domains shown) VH: QVQLVQSGAEVKKPGASVKVSCKASGGTFTSYHMHWVRQAPGQGLEWMGWMNPNSGNTGYALKFQGRVTMTRDTSTSTVYMELSSLRSEDTAVYYCASFERFGELVPETFDYWGQGTLVTVSS VL: DIQMTQSPSSLSASVGDRVTITCRASQGIRNDLAWYQQKPGKAPKLLIYAASSLQSGVPSRFSGSGSGTDFTLTISSLQPEDFATYYCQQSYSTPPTFGQGTKLEIKR .
Found: 2.2
